MEASURED ON: human Yes1 enzyme (Homo sapiens, UniProt P07947)
Construct: made in house
Sequence (P07947 whole entry): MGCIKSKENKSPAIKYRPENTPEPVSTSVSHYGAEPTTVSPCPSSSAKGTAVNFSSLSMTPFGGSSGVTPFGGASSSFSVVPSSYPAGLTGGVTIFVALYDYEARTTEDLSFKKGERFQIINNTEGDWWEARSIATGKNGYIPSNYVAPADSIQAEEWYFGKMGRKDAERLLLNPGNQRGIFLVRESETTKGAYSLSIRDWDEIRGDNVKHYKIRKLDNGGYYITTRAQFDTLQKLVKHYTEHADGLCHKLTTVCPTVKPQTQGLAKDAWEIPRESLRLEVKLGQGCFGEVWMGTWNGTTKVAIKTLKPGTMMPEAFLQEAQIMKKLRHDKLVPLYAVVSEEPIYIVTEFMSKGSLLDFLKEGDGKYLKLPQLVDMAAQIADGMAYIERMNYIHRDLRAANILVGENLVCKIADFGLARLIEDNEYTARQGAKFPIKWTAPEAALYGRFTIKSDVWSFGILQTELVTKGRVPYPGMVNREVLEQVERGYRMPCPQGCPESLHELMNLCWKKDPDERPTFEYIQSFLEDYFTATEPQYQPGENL
ASSAY TEXT: Yes1 enzyme inhibitory activity (time-resolved fluorometry, biotinylated peptide phosphorylation)
Type: biochemical
CONDITIONS USED: biotinylated peptide phosphorylation, read-out: YES_IC50
PARAMETER MEASURED: IC50 (nM)

1. Cc1cc(Oc2ccccc2F)ncc1-n1ncc(C(=O)c2cc3cc(OC(F)F)c(N4CCN(S(C)(=O)=O)CC4)cc3[nH]2)c1N = 5.5

[1] COc1cc2cc(C(=O)c3cnn(-c4cnc(Oc5c(F)cccc5F)cc4C)c3N)[nH]c2cc1N1CCCS1(=O)=O
[2] Cc1cc(Oc2ccccc2F)ncc1-n1ncc(C(=O)c2cc3cc(F)c(NS(=O)(=O)c4cncc(F)c4)cc3[nH]2)c1N
Data request: Hi! Which is lower in terms of IC50, the first one 1 or the second one 2 ? Lab note: record the label of whichever item you select.
Data returned: 1

###

MEASURED ON: human Yes1 enzyme (Homo sapiens)
Construct: made in house
ASSAY TEXT: Yes1 enzyme inhibitory activity (time-resolved fluorometry, biotinylated peptide phosphorylation)
Assay type: biochemical
CONDITIONS USED: read-out: YES_IC50
Method: 1. Yes1 Enzyme Inhibitory Activity Yes1 inhibitory activity was determined based on activity of inhibiting phosphorylation reaction of a biotinylated peptide (EGPWLEEEEEAYGWMDF) using a human Yes1 enzyme prepared using a baculovirus expression system. The phosphorylated biotinylated peptide was detected by time-resolved fluorometry using an anti-phosphorylated tyrosine antibody conjugated to europium cryptate, and streptavidin conjugated to XL665, an allophycocyanin derivative. […]
pIC50: −log10 of the molar value.
PARAMETER MEASURED: pIC50

Below, 3 compounds whose answers are already recorded.
1) Cc1cc(Oc2ccccc2F)ccc1-n1ncc(C(=O)c2cc3cc(OCC(F)F)c(N4C(=O)[C@@H]5C[C@H](NS(=O)(=O)CCCF)CN5C4=O)cc3[nH]2)c1N = 8.96
2) Cc1cc(Oc2ccccc2F)ccc1-n1ncc(C(=O)c2cc3cc(N4CCOCC4)c(N4CCOCC4)cc3[nH]2)c1N = 8.54
3) Cc1cc(Oc2c(F)cccc2F)ncc1-n1ncc(C(=O)c2cc3cc(OC4CCN(C(C)C)CC4)c(C4CCOCC4)cc3[nH]2)c1N = 9.01

[a] Cc1cc(-n2ncc(C(=O)c3cc4cc(N5CCOCC5)c(Br)cc4[nH]3)c2N)ccc1Oc1ccccc1F
[b] Cc1cc(-n2ncc(C(=O)c3cc4cc(N5CCOCC5)c(N5CCOCC5)cc4[nH]3)c2N)ccc1Oc1ccccc1F
Data request: Hi! Which is lower in terms of pIC50, the first one a or the second one b ? Lab note: record the label of whichever item you select.
Data returned: a

###

MEASURED ON: human Lck enzyme (Homo sapiens, UniProt P06239)
Construct: purchased Carna Biosciences, Inc. 08-170
Sequence (P06239 whole entry): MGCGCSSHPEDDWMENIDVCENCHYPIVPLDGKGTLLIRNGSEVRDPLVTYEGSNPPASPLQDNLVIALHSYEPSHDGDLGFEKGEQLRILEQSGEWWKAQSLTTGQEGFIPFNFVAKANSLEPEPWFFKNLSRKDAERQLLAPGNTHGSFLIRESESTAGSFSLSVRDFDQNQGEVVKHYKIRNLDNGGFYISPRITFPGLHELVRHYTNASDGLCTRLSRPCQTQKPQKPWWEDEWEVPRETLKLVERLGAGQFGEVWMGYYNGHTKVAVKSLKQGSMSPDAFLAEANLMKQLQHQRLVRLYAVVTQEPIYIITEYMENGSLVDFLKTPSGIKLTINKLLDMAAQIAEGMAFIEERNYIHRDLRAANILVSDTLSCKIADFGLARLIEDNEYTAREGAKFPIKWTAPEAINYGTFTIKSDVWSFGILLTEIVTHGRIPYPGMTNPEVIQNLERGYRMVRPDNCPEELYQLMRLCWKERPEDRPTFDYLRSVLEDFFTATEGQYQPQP
ASSAY TEXT: Lck enzyme inhibitory activity (time-resolved fluorometry, biotinylated peptide phosphorylation)
Type: biochemical
CONDITIONS USED: read-out: LCK_IC50
pIC50: −log10 of the molar value.
PARAMETER MEASURED: pIC50

Below, 8 molecules whose answers are already recorded.
1. Cc1cc(-n2ncc(C(=O)c3cc4cc(N5CCOCC5)c(N5CCN(S(C)(=O)=O)CC5)cc4[nH]3)c2N)ccc1Oc1ccccc1F [Example 5-1-158] = 7.38
2. Cc1cc(Oc2ccccc2F)ccc1-n1ncc(C(=O)c2cc3cc(C(C)C)c(Br)cc3[nH]2)c1N [Example 5-1-260] = 7.36
3. Cc1cc(Oc2c(F)cccc2F)ncc1-n1ncc(C(=O)c2cc3cc(OCC(F)F)c(NS(=O)(=O)c4ccc(Cl)cc4)cc3[nH]2)c1N [Example 5-1-298] = 7.03
4. Cc1cc(Oc2c(F)cccc2F)ncc1-n1ncc(C(=O)c2cc3cc(OC4CCN(C(C)C)CC4)c(C4CCN(S(C)(=O)=O)CC4)cc3[nH]2)c1N [Example 5-1-229] = 8.62
5. Cc1cc(-n2ncc(C(=O)c3cc4cc(OC5CCN(C6CS(=O)(=O)C6)CC5)c(-c5cncnc5)cc4[nH]3)c2N)ccc1Oc1ccccc1F [Example 5-1-283] = 7.49
6. Cc1cc2cc(C(=O)c3cnn(-c4ccc(Oc5ccccc5F)cc4C)c3N)[nH]c2cc1C1CCN(S(=O)(=O)C2CC2)CC1 [Example 5-1-131] = 8.25
7. Cc1cc2cc(C(=O)c3cnn(-c4ccc(Oc5ccccc5F)c(C)c4)c3N)[nH]c2cc1NS(C)(=O)=O [Example 5-1-307] = 6.14
8. Cc1cc(Oc2c(F)cccc2F)ncc1-n1ncc(C(=O)c2cc3cc(F)c(N4C(=O)NC(C)(C)C4=O)cc3[nH]2)c1N [Example 5-1-114] = 8.96

[1] Cc1cc2cc(C(=O)c3cnn(-c4ccc(Oc5ccccc5F)c(F)c4)c3N)[nH]c2cc1NS(C)(=O)=O [Example 5-1-198]
[2] Cc1cc(Oc2ccccc2F)ccc1-n1ncc(C(=O)c2cc3cc(OCC(F)F)c(N4CC(C)(C)NS4(=O)=O)cc3[nH]2)c1N [Example 5-1-322]
[3] Cc1cc(-n2ncc(C(=O)c3cc4cc(F)c(NS(C)(=O)=O)cc4[nH]3)c2N)cnc1Oc1cccc(Cl)c1 [Example 5-1-042]
[4] Cc1cc2cc(C(=O)c3cnn(-c4ccc(Oc5ccccc5F)cc4C)c3N)[nH]c2cc1N1CCC(N2CCOCC2)CC1 [Example 5-1-077]
[5] Cc1cc(Oc2c(F)cccc2F)ncc1-n1ncc(C(=O)c2cc3cc(OCC(F)F)c(N4C(=O)NC5(CCN(Cc6ccccc6)C5)C4=O)cc3[nH]2)c1N (stereo not shown) [Example 5-1-354]
Data request: Ordering: ascending pIC50. List each label, following the requested order.
Data returned: 3, 1, 2, 4, 5

[I] Cc1cc2cc(C(=O)c3cnn(-c4c(C)cc(Oc5c(F)cccc5F)cc4F)c3N)[nH]c2cc1NS(C)(=O)=O [Example 5-1-140]
[II] Cc1cc(Oc2c(F)cccc2F)ncc1-n1ncc(C(=O)c2cc3cc(OC4CCN(C(C)C)CC4)c(Cl)cc3[nH]2)c1N [Example 5-1-205]
[III] Cc1cc2cc(C(=O)c3cnn(-c4ccc(Oc5ccccc5F)cc4C)c3N)[nH]c2cc1N1C(=O)NC(C)(C)C1=O [Example 5-1-356]
[IV] Cc1cc(-n2ncc(C(=O)c3cc4cc(OC5CCN(C6CCC6)CC5)c(Cl)cc4[nH]3)c2N)ccc1Oc1ccccc1F [Example 5-1-235]
Data request: # sort list by recorded pIC50, greatest to least List each label, following the requested order.
Data returned: III, II, I, IV

[a] Cc1cc(Oc2c(F)cccc2F)ncc1-n1ncc(C(=O)c2cc3cc(OC4CCN(C(C)C)CC4)c(C4CCOCC4)cc3[nH]2)c1N [Example 5-1-248]
[b] Cc1cc2cc(C(=O)c3cnn(-c4cnc(Oc5c(F)cccc5F)cc4C)c3N)[nH]c2cc1NS(=O)(=O)CC(=O)NC(C)C [Example 5-1-136]
Data request: # returns the entry with the larger pIC50; inputs a and b Lab note: record the label of whichever item you select.
Data returned: a
